Target: UPR counterscreen luciferase reporter, luminescence
Test: luciferase reporter activation, UPR counterscreen line – cell-based, luminescence, counter-screen for adaptive UPR activator project, dose response (AID 489027)
Activity calls are given as the source filed them. How the calls were made is not given here.
Recorded metric: EC50

Cc1ccc(/C=C/C(=O)c2cc(Br)ccc2OC(=O)c2ccco2)cc1    inactive
COc1ccc(NC(=O)c2cc3c(=O)n(C)c4ccccc4c3n2C)cc1Cl    > 80 µM (inactive)
CCCn1c(Nc2nc3ccccc3n2C)nc2ccccc21    inactive
CC(C)c1cccc(-c2ccc3c(c2)S(=O)(=O)c2cccc(C(=O)NCc4ccccc4Cl)c2C3=O)c1    7.24 µM

Memo: "COc1cc([C@@H]2c3cc4c(cc3[C@@H](O)[C@H]3COC(=O)[C@H]23)OCO4)cc(OC)c1O[Si](C)(C)C(C)(C)C" , reported EC50: 14.6 µM

Memo: "Cc1ccc2nc(NC(=O)c3ccc(-c4nc5ccccc5s4)s3)sc2c1" , reported EC50: 11 µM

###

Target: UPR counterscreen luciferase reporter, luminescence
Test: luciferase reporter activation, UPR counterscreen line – cell-based, luminescence, counter-screen for adaptive UPR activator project, dose response (AID 489027)
Active and inactive are the calls of the source. How the calls were made is not given here.
Recorded metric: EC50

Solved entries:
Cc1ccc(Cn2c(C(C)Nc3nc(-c4ccc(F)cc4)cs3)nc3cc(Cl)c(Cl)cc32)cc1 (stereo not drawn)    inactive
CSC1=NC(C)(C)C=C(/C=C/c2ccc(Cl)cc2)N1    9.17 µM
O=C(Nc1nc(-c2ccc(F)c(F)c2)cs1)Nc1ccc(F)cc1F    13.4 µM
N#Cc1ccccc1NC(=O)COc1c(Br)cc(Br)c2cccnc12    inactive
CCOc1cc(/C=N/N=C(/N)c2nonc2N)cc(Br)c1OCc1ccc(Cl)cc1    > 80 µM (inactive)
O=C(NCC1CCCO1)c1nn2c(C(F)(F)F)cc(-c3cc(Br)cs3)nc2c1Br (stereo not drawn)    > 80 µM (inactive)
COc1cc(/C=C(\C#N)c2nc3ccccc3[nH]2)cc(Br)c1OCc1ccc(F)cc1    15.3 µM
O=c1cc(C(Cl)(Cl)Cl)oc2c1ccc1ccccc12    > 80 µM (inactive)

Reported UPR counterscreen luciferase reporter, luminescence EC50 for item "COc1cc(C(=O)Nc2cc(-c3nc4cc(C)ccc4o3)ccc2C)cc(OC)c1OC" was inactive

Reported UPR counterscreen luciferase reporter, luminescence EC50 for item "COc1ccc(N=Cc2c(O)c3ccccc3oc2=O)cc1" was 10.3 µM

Reported UPR counterscreen luciferase reporter, luminescence EC50 for item "Nc1cccc(-c2nc3cc(S(=O)(=O)c4ccc5oc(-c6cccc(N)c6)nc5c4)ccc3o2)c1" was > 80 µM (inactive)

Reported UPR counterscreen luciferase reporter, luminescence EC50 for item "COc1ccc(-c2cc(C(F)F)n3ncc(C(=O)Nc4ccc(C(=O)N5CCOCC5)cc4)c3n2)cc1" was > 80 µM (inactive)

Reported UPR counterscreen luciferase reporter, luminescence EC50 for item "COc1ccc(-c2nn(-c3ccccc3)cc2/C=C/C(=O)OCC(=O)Nc2cccc(C#N)c2)cc1" was > 80 µM (inactive)

Reported UPR counterscreen luciferase reporter, luminescence EC50 for item "COc1ccc(/C=N/Nc2nnc(-c3ccccc3)c(=O)[nH]2)cc1" was 15.6 µM

Reported UPR counterscreen luciferase reporter, luminescence EC50 for item "Cc1ccc2c(c1)C(=O)C(=O)N2Cc1ccc(Cl)cc1" was inactive

Reported UPR counterscreen luciferase reporter, luminescence EC50 for item "COc1cccc(-n2c(SCC(=O)N3CCc4ccccc43)nnc2-c2c[nH]c3ccccc23)c1" was > 80 µM (inactive)

###

Target: UPR counterscreen luciferase reporter, luminescence
Test: luciferase reporter activation, UPR counterscreen line – cell-based, luminescence, counter-screen for adaptive UPR activator project, dose response (AID 489027)
The source made the active and inactive calls. No rule for the calls is given here.
Outcomes you can answer with include only these: 1 (active), -1 (inactive)

CCCCN1C(=O)C(=O)c2cc(Cl)ccc21    -1
CCn1cc(C(=O)NC(=S)Nc2sc3c(c2C(=O)OC)CCCCCC3)cn1    -1
COc1ccc2nc(/C(C#N)=C\c3ccc(Oc4ccc([N+](=O)[O-])cn4)cc3)[nH]c2c1    -1
COc1cccc(-c2sc3ccccc3c2-c2ccc(OCCN(C)C)cc2)c1    1
Cc1ccc(S(=O)(=O)N(CC(=O)N/N=C/c2ccc(F)cc2)c2cccc3cccnc23)cc1    1

Exercise: Tell me the recorded outcome of this test for "CCCCCCCCCCn1c2c(c(=N)c3c1CCC3)CCC2" .
Key: 1

Exercise: Tell me the recorded outcome of this test for "C/C(=N/Nc1cc(-c2ccccc2)nc(-c2ccccc2)n1)c1ccc(O)cc1" .
Key: 1

Exercise: Tell me the recorded outcome of this test for COc1ccc(C2NCCc3c2[nH]c2ccccc32)cc1COc1ccc(F)cc1 (stereo unspecified) .
Key: 1

Exercise: Tell me the recorded outcome of this test for "COc1ccc(-c2csc3nc(-c4ccc(C)cc4)oc(=O)c23)cc1OC" .
Key: -1

###

Target: UPR counterscreen luciferase reporter, luminescence
Test: luciferase reporter activation, UPR counterscreen line – cell-based, luminescence, counter-screen for adaptive UPR activator project, dose response (AID 489027)
Activity calls are given as the source filed them. No rule for the calls is given here.
Outcomes you can answer with include only these: active, inactive

CCOC(=O)c1c(-c2ccc(C)o2)csc1NC(=O)COC(=O)c1ccc(NC(N)=O)cc1    inactive
O=C(O)c1ccc(N2C(=O)/C(=C/c3ccc(-c4ccc([N+](=O)[O-])cc4)o3)C=C2c2ccccc2)cc1    inactive
COc1cc(/C=N/Nc2nc(Nc3ccccc3)nc(-n3nc(C)cc3C)n2)cc(OC)c1OC    inactive

Exercise: Tell me the recorded outcome of this test for Cc1ccc(C(C(=O)NCc2ccco2)N(C(=O)CNC(=O)c2cccs2)c2c(C)cc(C)cc2C)cc1 (centres undefined) .
Key: inactive

Exercise: Tell me the recorded outcome of this test for CCc1ccc(OCCNc2cc(N3CCNC(C)C3)ccc2[N+](=O)[O-])cc1 (centres undefined) .
Key: inactive

Exercise: Tell me the recorded outcome of this test for CC1CCCCC1N1CN=C(Nc2nc3ccccc3s2)NC1 (centres undefined) .
Key: inactive

Exercise: Tell me the recorded outcome of this test for "Cc1cc(C)c2sc(N(CCCN(C)C)C(=O)c3ccc(S(=O)(=O)N4CCCc5ccccc54)cc3)nc2c1" .
Key: inactive

Exercise: Tell me the recorded outcome of this test for "CCN(CC)S(=O)(=O)c1ccc2c(c1)C(=NO)c1cc(S(=O)(=O)N(CC)CC)ccc1-2" .
Key: inactive

Exercise: Tell me the recorded outcome of this test for CCC1CCc2c(sc3nc(SCC(=O)NCc4ccco4)n(-c4ccccc4)c(=O)c23)C1 (centres undefined) .
Key: active

###

Target: UPR counterscreen luciferase reporter, luminescence
Test: luciferase reporter activation, UPR counterscreen line – cell-based, luminescence, counter-screen for adaptive UPR activator project, dose response (AID 489027)
Activity calls are given as the source filed them. No rule for the calls is given here.
Recorded metric: EC50

Solved entries:
COc1ccc2cc3c(N)nn(C(=O)C4CCC(C(C)(C)C)CC4)c3nc2c1 (stereo unspecified)    > 80 µM (inactive)
Cc1ccc2c(c1)c(N=NC(N)=S)c(O)n2Cc1ccccc1    > 80 µM (inactive)
CCC/C(=N/Nc1ccc(Cl)cc1)c1cnnc(-c2ccccc2)n1    inactive
O=C(Nc1ccc(NC(=O)c2sc3ccccc3c2Cl)cc1Cl)c1ccco1    inactive
O=C(Cc1ccccc1)c1c[nH]c(C(=O)C(Cl)(Cl)Cl)c1    inactive

Memo: Clc1ccc2c(c1)C(N1CCNCC1)Cc1ccccc1S2 (stereo unspecified) , reported EC50: > 80 µM (inactive)

###

Target: UPR counterscreen luciferase reporter, luminescence
Test: luciferase reporter activation, UPR counterscreen line – cell-based, luminescence, counter-screen for adaptive UPR activator project, dose response (AID 489027)
Active and inactive are the calls of the source. No rule for the calls is given here.
Outcomes you can answer with include only these: active, inactive

Exercise: Tell me the recorded outcome of this test for "COc1cc(NC(=O)c2cncc(-c3ccc(C#N)cc3)c2)cc(C(=O)Nc2cccc(C(F)(F)F)c2)c1" .
Key: inactive

Exercise: Tell me the recorded outcome of this test for CCc1ccccc1NC(=O)C(CC)Sc1nc2cc3c(cc2c(=O)n1Cc1ccco1)OCO3 (stereo not drawn) .
Key: active

Exercise: Tell me the recorded outcome of this test for CCOC(=O)c1c(NC(C)=O)sc2c(OCC(O)CNC(C)(C)C)c(Br)ccc12 (stereo not drawn) .
Key: inactive

Exercise: Tell me the recorded outcome of this test for "COc1cccc(-c2c(-c3cc(OC)cc(OC)c3)n(C)c3ccc(-c4cnc(N5CCOCC5)nc4)cc23)c1" .
Key: inactive

Exercise: Tell me the recorded outcome of this test for CCCCC1CCC(C(=O)N(CC(C)C)c2c(N)n(CCCC)c(=O)[nH]c2=O)CC1 (stereo not drawn) .
Key: inactive
